Listing: inhibition of selected molecules
# Protocol description: Gli-Sufu pathway antagonists, primary screen, luciferase luminescence, Sufu-KO-LIGHT cells, uHTS (AID 588413);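 further: 0% = DMSO-treated cells and 100% = wells with medium but no cells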
# Assay setup: Sufu-KO-LIGHT fibroblasts, Gli luciferase reporter luminescence; at 5 µM; hits give high values
In all, about 340,000 compounds went through this assay and about 2,500 (0.74%) were called active. This excerpt belongs to a sample that is enriched for actives.
# output: bare number, implied unit %

1. O=C(CCS(=O)(=O)c1cccc2nonc12)NCCc1ccccc1Cl :: 4.43

Okay, next one:
Given item "O=C(/C=C/c1ccc([N+](=O)[O-])o1)NNC(=O)c1ccc(F)cc1" , the value recorded as its inhibition is 67.6

* * *

# Protocol description: Gli-Sufu pathway antagonists, primary screen, luciferase luminescence, Sufu-KO-LIGHT cells, uHTS (AID 588413);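 further: 0% = DMSO-treated cells and 100% = wells with medium but no cells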
# Assay setup: Sufu-KO-LIGHT fibroblasts, Gli luciferase reporter luminescence; at 5 µM; hits give high values
About 2,500 (0.74%) of roughly 340,000 compounds were called active. This is one part of a sample in which actives are shown more often than they occur.
Measured endpoint: inhibition (%)
# output: bare number, implied unit %

1) CCOC(=O)CNC(=O)N1c2ccccc2Sc2ccccc21 :: 2.43
2) COc1cccc(/C=N/Nc2ccc(S(=O)(=O)Nc3ccccc3C(=O)O)cc2[N+](=O)[O-])c1O :: 6.14
3) COC(=O)c1c(C)[nH]c(C(=O)NCCc2ccc(S(N)(=O)=O)cc2)c1C :: -12.2

Okay, next one:
Given item CC(=O)NCC(=O)N(C)C(C(=O)Nc1ccc2c(c1)OCCO2)c1ccccc1 (stereo unspecified) , the value recorded as its inhibition is -14.5

* * *

# Protocol description: Gli-Sufu pathway antagonists, primary screen, luciferase luminescence, Sufu-KO-LIGHT cells, uHTS (AID 588413);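 further: 0% = DMSO-treated cells and 100% = wells with medium but no cells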
# Assay setup: Sufu-KO-LIGHT fibroblasts, Gli luciferase reporter luminescence; at 5 µM
About 2,500 (0.74%) of roughly 340,000 compounds were called active.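 How the source made its calls: active means inhibition above about 55% (limit read from the data); inactive means the rest.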 This is one part of a sample in which actives are shown more often than they occur.
The reply should be one of these categories: YES = active, NO = inactive

Some solved cases for reference:
1) O=C(NNS(=O)(=O)Cc1ccccc1)c1ccc([N+](=O)[O-])cc1 :: NO
2) CCn1c(NCCc2ccc(OC)c(OC)c2)nc2c1c(=O)n(C)c(=O)n2C :: NO
3) CC(=NNC(=S)N1CCCCCC1)c1ccccn1 :: YES

Given "CCCCNc1nc2c(c(=O)[nH]c(=O)n2C)n1CCOc1ccccc1" , state the outcome it received in this test. NO

Given O=C(N=C1SC2CS(=O)(=O)CC2N1c1cc(Cl)ccc1Cl)C1CC1 (stereo not drawn) , state the outcome it received in this test. NO

Given O=C(OCC(=O)N1CCc2ccccc21)C1CCCN1S(=O)(=O)c1ccc(Cl)cc1 (stereo not drawn) , state the outcome it received in this test. NO

* * *

Listing: inhibition of selected compounds
# Protocol description: Gli-Sufu pathway antagonists, primary screen, luciferase luminescence, Sufu-KO-LIGHT cells, uHTS (AID 588413);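 further: 0% = DMSO-treated cells and 100% = wells with medium but no cells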
# Assay setup: Sufu-KO-LIGHT fibroblasts, Gli luciferase reporter luminescence; at 5 µM; hits give high values
Among all 340,000 compounds or so, about 2,500 (0.74%) were called active. What follows is part of a selection rich in actives, with near analogues and random picks from the rest.

Worked examples, 2 compounds total:
1) CCc1ccc(C(=O)C(C)OC(=O)CN2C(=O)NC3(CCCC3)C2=O)cc1 (stereo not drawn) :: -24.9% (inactive)
2) COc1ccc(CC(=O)NC(C)c2ccc(Cl)c(Cl)c2)cc1S(=O)(=O)N1CCOCC1 (stereo not drawn) :: -4.33% (inactive)

Given item "Cc1ccccc1NC(=O)NC1(C(=O)N2CCCC2)CCCCC1" , the value recorded as its inhibition is 44.2% (inactive)

* * *

# Protocol description: Gli-Sufu pathway antagonists, primary screen, luciferase luminescence, Sufu-KO-LIGHT cells, uHTS (AID 588413);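 further: 0% = DMSO-treated cells and 100% = wells with medium but no cells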
# Assay setup: Sufu-KO-LIGHT fibroblasts, Gli luciferase reporter luminescence; at 5 µM; hits give high values
Hit rate of the full screen: of about 340,000 compounds, about 2,500 (0.74%) were called active. The list comes from a sample in which actives are over-represented; it also holds close analogues and randomly drawn compounds.
Decision: inhibition compared against 20%; not below it gives met, below it gives not met.

1. Cc1ccc(S(=O)(=O)N2CCN(C(=O)c3ccc(-n4cncn4)c([N+](=O)[O-])c3)CC2)cc1 :: not met
2. OCC1(Cc2ccccc2C(F)(F)F)CCN(Cc2cccc3cnccc23)CC1 :: met

Identify whether the reported inhibition of the following molecule is 20% or greater: "COc1ccc(CNc2c(CO)cnc3c2cnn3C)cc1" met

Identify whether the reported inhibition of the following molecule is 20% or greater: "CC(=O)c1c(O)cc2n(c1=O)-c1ccc(Cl)cc1C2(C)C" not met

* * *

Listing: inhibition of selected molecules
# Protocol description: Gli-Sufu pathway antagonists, primary screen, luciferase luminescence, Sufu-KO-LIGHT cells, uHTS (AID 588413);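 further: 0% = DMSO-treated cells and 100% = wells with medium but no cells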
# Assay setup: Sufu-KO-LIGHT fibroblasts, Gli luciferase reporter luminescence; at 5 µM; hits give high values
The campaign covered roughly 340,000 compounds. About 2,500 (0.74%) were called active. For the sample, actives were picked, then their nearest neighbours and some compounds at random.
# output: bare number, implied unit %

1. O=c1c2ccccc2ncn1/N=C/c1ccccc1 :: 20.9
2. COc1ccc(CCNC(=O)C(=O)NCC2OCCN2S(=O)(=O)c2cccs2)cc1OC (centres undefined) :: 1.51
3. COc1ccc(C(=O)Nc2ccnn2C2CCN(Cc3ccncc3)CC2)cc1 :: -4.23
4. Cc1ccc(S(=O)(=O)N(C)C)cc1NC(=O)c1ccc(-n2cncn2)c([N+](=O)[O-])c1 :: 5.99

Given item "C/C(N)=C(\C#N)C(=O)NCCc1ccccn1" , the value recorded as its inhibition is -1.25

Given item CCOP1(=O)C=C(C(C)(C)C)OC1c1ccc(F)cc1 (centres undefined) , the value recorded as its inhibition is 8.49

Given item O=C(Nc1ccccc1C(=O)NCC1CCCO1)c1ccccc1F (centres undefined) , the value recorded as its inhibition is -6.12

Given item "O=C(NCCS(=O)(=O)NCc1ccc(Cl)cc1)c1ccccc1" , the value recorded as its inhibition is -12.9

Given item "N#CCC(=O)NC(=O)NCC1CC1" , the value recorded as its inhibition is -8.84

* * *

Listing: inhibition of selected compounds
# Protocol description: Gli-Sufu pathway antagonists, primary screen, luciferase luminescence, Sufu-KO-LIGHT cells, uHTS (AID 588413);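 further: 0% = DMSO-treated cells and 100% = wells with medium but no cells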
# Assay setup: Sufu-KO-LIGHT fibroblasts, Gli luciferase reporter luminescence; at 5 µM; hits give high values
About 2,500 (0.74%) of roughly 340,000 compounds were called active. This is one part of a sample in which actives are shown more often than they occur.
# output: bare number, implied unit %

Worked examples, 3 compounds total:
1) COc1ccc(OC)c(CNC(=O)C2CCCN(c3nc4ccccc4o3)C2)c1 (configuration not stated) :: 1.69
2) CC(C)(C)c1ccc(Oc2ccc(N)cc2)cc1 :: 76.2
3) OC(c1ccc(Cl)cc1)C(CN1CCOCC1)c1ccccc1 (configuration not stated) :: -27.6

Given item "COc1ccc(C)cc1NC(=S)N1CCOCC1" , the value recorded as its inhibition is 1.61

Given item "Cc1ccc2nc(SCC(=O)NC3CCCC3)[nH]c2c1" , the value recorded as its inhibition is 19.8

Given item "COc1ccccc1CNC(=O)C1CCN(S(C)(=O)=O)CC1" , the value recorded as its inhibition is -3.13

Given item "CC(=O)c1cc2c(cc1NC(=O)CN1CCCCCC1)OCO2" , the value recorded as its inhibition is -2.2

* * *

# Protocol description: Gli-Sufu pathway antagonists, primary screen, luciferase luminescence, Sufu-KO-LIGHT cells, uHTS (AID 588413);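 further: 0% = DMSO-treated cells and 100% = wells with medium but no cells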
# Assay setup: Sufu-KO-LIGHT fibroblasts, Gli luciferase reporter luminescence; at 5 µM; hits give high values
The campaign covered roughly 340,000 compounds. About 2,500 (0.74%) were called active. The sample holds actives, similar compounds and a random draw of the others, so the mix is not that of the screen.
Listing: inhibition of selected molecules
# output: bare number, implied unit %

Given item "O=C(Cn1nnc(-c2ccccc2)n1)NC(=O)NC1CCCC1" , the value recorded as its inhibition is 0.46

Given item "CCCCn1c(SCC(=O)N2CCCC2=O)nc2cc(S(N)(=O)=O)ccc21" , the value recorded as its inhibition is 5.29

* * *

# Protocol description: Gli-Sufu pathway antagonists, primary screen, luciferase luminescence, Sufu-KO-LIGHT cells, uHTS (AID 588413);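 further: 0% = DMSO-treated cells and 100% = wells with medium but no cells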
# Assay setup: Sufu-KO-LIGHT fibroblasts, Gli luciferase reporter luminescence; at 5 µM; hits give high values
Hit rate of the full screen: of about 340,000 compounds, about 2,500 (0.74%) were called active. For the sample, actives were picked, then their nearest neighbours and some compounds at random.
Measured endpoint: inhibition

Worked examples, 2 compounds total:
1. Clc1ccc(C[n+]2cc(-c3ccccc3)n3c2CCC3)cc1 :: 49.7% (inactive)
2. CCC(=C/c1sc2ccc3ccccc3c2[n+]1C)/C=C1\Sc2ccc3ccccc3c2N1C :: 64.2% (active)

Given item "Cc1ccc(-c2c[n+](CC(=O)Nc3ccccc3)c3n2CCC3)cc1" , the value recorded as its inhibition is -11.4% (inactive)
